Values were extracted from ChEMBL document CHEMBL3988442.

Please provide measured Percent Effect for the entries that follow.
biological target: Arginase-2, mitochondrial (Homo sapiens); test: in vitro enzyme assay to detect the production of urea directly proportional to the activity of Arginase II; type: functional; set-up: scale not given: in the data most compounds retested in dose-response had high values; settings: 30 µM
Numbers only, in %.

molecule="Fc1ccc(CNCc2nnc3n2CC(C(F)(F)F)CC3)cc1 (stereo unspecified)" endpoint_value=-13.5
molecule="CCC(C(=O)NCc1ccncc1)N(c1cccc(Cl)c1)S(C)(=O)=O (stereo unspecified)" endpoint_value=-13.5
molecule=c1ccc(O[C@H]2CO[C@@]3(CCN(Cc4ccc5c(c4)OCO5)C3)C2)nc1 endpoint_value=7.03
molecule=CN1CCC(N(Cc2ccccc2F)C(=O)NCc2ccncc2)CC1 endpoint_value=5.95
molecule=O=C(NCc1ccncc1)N(Cc1ccc(F)cc1F)C1CC1 endpoint_value=3.78

Okay, now this molecule:
The recorded Percent Effect for entry OC(COc1ccccc1)CN1CCN(c2nccs2)CC1 (stereo unspecified) equals 4.87

###

Please provide measured Percent Effect for the entries that follow.
molecular target: Chromo domain-containing protein 1 (Saccharomyces cerevisiae (strain ATCC 204508 / S288c) (Baker's yeast)); experiment: ScCHD-1 Enzyme Inhibition Assay; assay type: functional; design: scale not given: in the data most compounds retested in dose-response had high values; settings: 30 µM
Numbers only, in %.

For orientation, consider the following solved cases.
compound=Cc1ccc(CN2CCCn3c(nc(CN4CCCC4)cc3=O)C2)s1 quantity_kind="Percent Effect" endpoint_value=3.51
compound=CCCn1ncc2c(C(=O)Nc3cnn(CC)c3C)cc(C3CC3)nc21 quantity_kind="Percent Effect" endpoint_value=-24.6
compound=O=C(CC1CCCC1)N1C[C@@H]2CCN(c3cccnc3)C[C@@H]2C1 quantity_kind="Percent Effect" endpoint_value=-2.18
compound=O=C(NC[C@]1(O)CN(Cc2ccccc2F)C[C@H]1O)c1ccccn1 quantity_kind="Percent Effect" endpoint_value=-24.1
compound=CC[C@@H]1N(Cc2ccsc2)CCC[C@]12CCC(=O)N2CCOC quantity_kind="Percent Effect" endpoint_value=-3.65

Hey, can you go through the list below and give me Percent Effect for every item?
1. Cn1cc(-c2nc(CNCCn3cccn3)cs2)cn1
2. Cc1cc(C(=O)NC2CCc3nc(C)cn3C2)[nH]n1 (centres undefined)
3. COc1ccc(CNCc2ccnc(N3CCCCC3)c2)cc1OC
4. CN(Cc1ccccc1)CC(O)Cn1cnc2c(cnn2C)c1=O (centres undefined)
5. Cc1ccc(-c2nc(CN3CCn4c(nnc4C4CC4)C3)co2)cc1
6. COc1cc(C)nc(N2CCN(C(=O)CN(C)C3CC3)CC2)n1
7. CN1CCC/C1=N\S(=O)(=O)c1ccc(NC(=O)CCc2cccs2)cc1
8. CC(C)c1nc(C2CCCN2Cc2ccn(C)c(=O)c2)no1 (centres undefined)

Result:
1. 27.9
2. -7.74
3. -2.92
4. -3.86
5. -6.77
6. 0.147
7. -8.39
8. -2.67

###

target: AMP-activated protein kinase, AMPK (Homo sapiens) (UniProt P54646+O43741+P54619+Q9UGJ0+Q9Y478+Q13131+Q9UGI9); experiment: AMP-dependent Kinase enzyme assay. An in vitro enzyme assay that detects ADP turnover that is directly proportional to AMPK activity. This uses naive AMPK that is activated during the assay with MK-8722; type: functional; parameters: scale not given: direction of the effect not stated beside the values; settings: 30 µM
quantity_kind: Percent Effect (%)
Answers are plain numbers, in %.

For orientation, consider the following solved cases.
compound=CCNc1cc2c(nn1)CCN(C(=O)c1ccc(-n3cccn3)nc1)C2 quantity_kind="Percent Effect" endpoint_value=-5.94
compound=Cc1c(C(=O)NCCCS(C)(=O)=O)cccc1-c1ccccn1 quantity_kind="Percent Effect" endpoint_value=10.6
compound=Cc1ccc(CNCc2nccn2C)c(OC(C)(C)C)c1 quantity_kind="Percent Effect" endpoint_value=-4.8

Hey, can you go through the list below and give me Percent Effect for every item?
1. CNC(=O)CN(C)C(=O)c1ccc(-c2nc(C)cs2)cc1
2. c1cnn(C2CN(c3nc(-c4ccncc4)nc4c3CCC4)C2)c1
3. O=S(=O)(NCC1(c2cccs2)CCCC1)c1cccnc1
4. CC(NCC(=O)NCC(=O)Nc1ccc(F)cc1)c1cccs1 (stereo not given)
5. Cc1nn(C)c(C)c1CCC(=O)NCC1(C(N)=O)CCOCC1
6. NCC(CO)Cc1ccc(OC(F)(F)F)cc1 (stereo not given)
7. CCc1c(C)nc(-n2nc(-c3cccs3)cc2N)[nH]c1=O
8. COc1cc2c(cc1OC)CN(C(=O)NCC1CCCO1)CC2 (stereo not given)

Result:
[-2.2, 1.13, -4.96, 8.16, 1.16, -4.6, -6.28, -8.87]

Hey, can you go through the list below and give me Percent Effect for every item?
1. CN(CC(=O)NCC(=O)Nc1ccc(F)cc1)Cc1cccs1
2. O=C(NCc1ccc(OCC2CC2)nc1)C1COc2ccccc2O1 (stereo not given)
3. NC(=O)C1(Cc2ccccc2-c2cncnc2)CCCNC1 (stereo not given)
4. CCN1CC(COC(=O)c2cc(C)nn2CC)CC1=O (stereo not given)
5. CCOCC(C)(C)NC(=O)Nc1cc(F)ccc1OC
6. CC(C)c1nc(C2CCCN2CCS(C)(=O)=O)no1 (stereo not given)

Result:
1. -1.85
2. -1.03
3. 3.1
4. 5.06
5. 1.04
6. 6.84

Hey, can you go through the list below and give me Percent Effect for every item?
1. COc1cc(N2CCN(Cc3ccc(C)o3)C(CCO)C2)nc(N)n1 (stereo not given)
2. O=C(Nc1cccc(C(=O)OCC2CCCN2)c1)c1ccoc1 (stereo not given)

Result:
[0.197, 0.474]

Hey, can you go through the list below and give me Percent Effect for every item?
1. CN(Cc1csc(-c2cccs2)n1)CC(O)CO (stereo not given)
2. Cc1ccc(O)c(C(=O)N2CCC3(CCCNC3)C2)c1 (stereo not given)
3. Cc1cncc(C2CCN(Cc3ccc(S(C)(=O)=O)cc3)CC2)n1

Result:
5.86
11.1
5.76

###

target: Ubiquitin-activating enzyme e1, putative (Leishmania donovani (strain BPK282A1)) (UniProt E9BSI1); experiment: Leishmania donovani Ubiquitin Activating Enzyme (LdE1); type: functional; set-up: scale not given: direction of the effect not stated beside the values; conditions: 30 µM
Sequence (E9BSI1 as listed by the source): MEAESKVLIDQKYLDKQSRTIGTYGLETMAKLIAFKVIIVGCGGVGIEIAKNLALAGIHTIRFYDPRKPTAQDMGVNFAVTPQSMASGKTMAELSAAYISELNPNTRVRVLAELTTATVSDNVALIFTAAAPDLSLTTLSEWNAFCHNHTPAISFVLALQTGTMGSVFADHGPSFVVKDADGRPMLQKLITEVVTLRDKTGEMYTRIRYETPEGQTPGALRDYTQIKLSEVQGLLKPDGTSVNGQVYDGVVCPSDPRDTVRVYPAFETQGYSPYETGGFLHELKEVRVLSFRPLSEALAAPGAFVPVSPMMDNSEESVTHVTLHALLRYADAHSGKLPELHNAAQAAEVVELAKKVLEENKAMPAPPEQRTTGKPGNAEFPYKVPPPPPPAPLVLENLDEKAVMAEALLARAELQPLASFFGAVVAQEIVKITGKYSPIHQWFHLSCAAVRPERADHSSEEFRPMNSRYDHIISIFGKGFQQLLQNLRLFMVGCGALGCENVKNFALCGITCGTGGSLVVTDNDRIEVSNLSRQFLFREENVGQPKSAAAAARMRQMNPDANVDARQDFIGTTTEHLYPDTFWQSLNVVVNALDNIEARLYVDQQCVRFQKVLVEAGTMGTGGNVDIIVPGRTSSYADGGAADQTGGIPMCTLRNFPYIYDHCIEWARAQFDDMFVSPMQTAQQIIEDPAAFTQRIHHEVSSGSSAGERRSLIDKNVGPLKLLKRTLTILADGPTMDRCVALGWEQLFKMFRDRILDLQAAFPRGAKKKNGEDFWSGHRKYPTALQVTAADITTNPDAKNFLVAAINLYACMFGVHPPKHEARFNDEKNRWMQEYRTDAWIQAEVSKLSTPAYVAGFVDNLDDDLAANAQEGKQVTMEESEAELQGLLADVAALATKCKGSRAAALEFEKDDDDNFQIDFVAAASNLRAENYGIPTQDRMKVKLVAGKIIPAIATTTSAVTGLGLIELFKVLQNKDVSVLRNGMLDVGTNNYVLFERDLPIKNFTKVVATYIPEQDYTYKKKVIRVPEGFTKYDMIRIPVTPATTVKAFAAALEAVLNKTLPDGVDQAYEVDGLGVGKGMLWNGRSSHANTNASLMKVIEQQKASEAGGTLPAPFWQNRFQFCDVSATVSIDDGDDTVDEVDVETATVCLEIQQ
Entries with a potency or affinity are not part of this list.
quantity_kind: Percent Effect (%)
One number for each entry, in %.

compound="COc1cccc2c1OCC(C(=O)N1CCC(N3CCOC3=O)CC1)C2 (centres undefined)" quantity_kind="Percent Effect" endpoint_value=13.5
compound="Cc1occc1CNC(=O)N(CCCO)C1CCc2ccccc21 (centres undefined)" quantity_kind="Percent Effect" endpoint_value=10.7
compound=CCCNC(=O)c1cc2c(c3ccccc3n2C)n1C(=O)N(C)C quantity_kind="Percent Effect" endpoint_value=-1.3
compound="CNc1nc(C2CCCN2C(C)=O)nc2c1CCN(CC1CC1)C2 (centres undefined)" quantity_kind="Percent Effect" endpoint_value=9.33
compound="O=C(NCc1cc(O)ncn1)C1COc2ccccc2C1 (centres undefined)" quantity_kind="Percent Effect" endpoint_value=10.8
compound=c1cnc(OCc2nnc3n2CCN(CC2CC2)C3)nc1 quantity_kind="Percent Effect" endpoint_value=1.3

Hey, can you go through the list below and give me Percent Effect for every item?
1. Cc1cccnc1CNCC1(O)CCCN(Cc2ccc(F)cc2)C1=O (centres undefined)
2. Cc1cncc(C2CCCN(C(=O)c3cccn3C)C2)n1 (centres undefined)
3. Cc1noc(C)c1CC(=O)OCC(=O)N1CCc2sccc2C1
4. COc1cccc(CN2CCCC3(CCN(C(=O)[C@H]4CCCO4)C3)C2)c1 (some centres undefined)
5. CC1(C)OCC(CNC(=O)c2cnn(-c3cc(Cl)ccc3Cl)c2N)O1 (centres undefined)
6. Cc1noc(C(C)C)c1C(=O)NCCCN1CCCC1
7. CCc1nc(C)c(C(=O)NCCN2CCC(C)CC2)s1

Result:
1. 8.11
2. 17.3
3. 18.7
4. 3.9
5. 9.33
6. 26
7. -2.6

Hey, can you go through the list below and give me Percent Effect for every item?
1. CCC(=O)N1CCCC1c1nccnc1Nc1nc(C)cc(C)n1 (centres undefined)
2. Cc1nn(C)c(N(C)C)c1CNCCCN(C)S(C)(=O)=O
3. O=C(c1ccnnc1)N1CCC2(CC1)CC(N1CCOCC1)C2
4. CCc1noc(C(C)N2CCC(N3CCCC3)CC2)n1 (centres undefined)

Result:
[14.7, 12.8, 14.3, 16]

Hey, can you go through the list below and give me Percent Effect for every item?
1. COc1ccc(C(N)c2cccc(S(C)(=O)=O)c2)cc1 (centres undefined)
2. NCc1cn(-c2ccccc2C(=O)NCc2cccc(Cl)c2)cn1
3. Cc1cccc(CN2CCC3(CCN(c4ccccn4)C3)C2=O)c1 (centres undefined)
4. Cc1cc(CN(C)C(=O)c2ccnc(N(C)C)c2)no1
5. CN(C)S(=O)(=O)N1CC[C@]2(C[C@H](Oc3ncccc3F)CO2)C1

Result:
1: 18.7; 2: 9.33; 3: 16.9; 4: 8; 5: 1.3

Hey, can you go through the list below and give me Percent Effect for every item?
1. CC(C)CN1CCC2(CCN(Cc3ccoc3)CC2)C1=O
2. Cc1cc(C)n(C2CCCN(C(=O)c3c(C)c(C)n[nH]c3=O)C2)n1 (centres undefined)

Result:
1: 27.3; 2: 8
